Biological target: Recombinant human VAP-1 SSAO (Homo sapiens, UniProt Q16853)
Construct: NP40 lysate supernatant used directly
Assay: In vitro inhibition of VAP-1 SSAO activity (coupled colourimetric method)
Settings: recombinant human VAP-1 SSAO in CHO cell lysate, 1 mM benzylamine, pH 7.6, 37° C.; read-out: VAP-1 SSAO inhibitory activity IC50
Provide the reported pIC50 of each item.
Answers are plain numbers, as −log10 of the molar value.

# count of solved cases: 2
Compound	Measure	Numeric value
CN(N)[C@H]1Cc2ccccc2[C@@H]1O [Compound 11]	pIC50	6.15
CN(N)[C@H]1Cc2ccccc2[C@@H]1O [Compound 13]	pIC50	6.18

Kindly consider the entry below.
Per the records, this compound ( CN(N)[C@H]1Cc2ccccc2[C@@H]1O [Compound 9, succinate] ) has pIC50 equal to 6.21

* * *

Biological target: Recombinant human VAP-1 SSAO (Homo sapiens)
Construct: expressed in transfected cells; host or cells: Chinese Hamster Ovary (CHO) cells; NP40 lysate supernatant used directly
Sequence (Q16853 1-763): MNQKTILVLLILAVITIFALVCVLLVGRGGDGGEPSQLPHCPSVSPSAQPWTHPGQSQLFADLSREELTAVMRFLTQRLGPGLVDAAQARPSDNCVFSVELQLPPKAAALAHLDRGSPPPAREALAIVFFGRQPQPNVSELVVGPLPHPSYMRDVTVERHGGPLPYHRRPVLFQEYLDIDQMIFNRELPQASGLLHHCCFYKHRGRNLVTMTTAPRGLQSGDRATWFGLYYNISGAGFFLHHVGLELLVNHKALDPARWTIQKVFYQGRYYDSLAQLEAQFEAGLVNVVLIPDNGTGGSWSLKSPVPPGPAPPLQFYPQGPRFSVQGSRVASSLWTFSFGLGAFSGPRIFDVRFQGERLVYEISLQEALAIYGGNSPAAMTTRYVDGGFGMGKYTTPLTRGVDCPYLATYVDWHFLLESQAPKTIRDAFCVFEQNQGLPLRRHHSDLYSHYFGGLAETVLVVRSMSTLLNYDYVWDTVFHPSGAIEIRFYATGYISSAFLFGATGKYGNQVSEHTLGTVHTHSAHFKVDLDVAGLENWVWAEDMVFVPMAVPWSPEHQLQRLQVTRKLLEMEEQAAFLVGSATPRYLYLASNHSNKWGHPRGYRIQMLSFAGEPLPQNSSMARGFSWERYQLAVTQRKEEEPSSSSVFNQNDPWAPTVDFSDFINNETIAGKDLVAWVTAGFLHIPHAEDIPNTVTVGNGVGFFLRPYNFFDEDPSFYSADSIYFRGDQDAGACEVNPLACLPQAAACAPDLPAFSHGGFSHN
Assay: In vitro inhibition of VAP-1 SSAO activity (coupled colourimetric method)
Type: biochemical
Conditions: ratio of total rat MAO IC50 to human VAP-1 SSAO IC50
So I've got a bunch of molecules here, and I need their Selectivity for VAP-1 SSAO over MAO values.
Give bare numbers.

Molecule	Numeric value
CO[C@H]1c2ccccc2C[C@@H]1N(C)N [Compound 19]	3

Please supply Selectivity for VAP-1 SSAO over MAO for each of the following items, keeping them in order.
1. CN(N)[C@H]1Cc2ccccc2[C@@H]1O [Compound 11]
2. CN(N)[C@@H]1Cc2ccccc2[C@H]1O [Compound 14]

Output:
1. 31
2. 28

Batch: Selectivity for VAP-1 SSAO over MAO for all items listed.
1. CN(N)[C@@H]1Cc2ccccc2[C@H]1O (relative stereo) [Compound 4]
2. CCN(N)[C@@H]1Cc2ccccc2[C@H]1O (racemic) [Compound 2]
3. CN(N)[C@@H]1Cc2ccccc2[C@H]1O [Compound 6]
4. CN(N)[C@H]1Cc2ccccc2[C@@H]1O [Compound 1]
5. CN(N)[C@@H]1Cc2ccccc2[C@H]1O [Compound 12]
6. CN(N)[C@H]1Cc2ccccc2[C@@H]1O [Compound 13]

Output:
1. 32
2. 4
3. 29
4. 31
5. 30
6. 29

* * *

Molecular target: Recombinant human VAP-1 SSAO (Homo sapiens)
Construct: NP40 lysate supernatant used directly
Sequence (Q16853 1-763): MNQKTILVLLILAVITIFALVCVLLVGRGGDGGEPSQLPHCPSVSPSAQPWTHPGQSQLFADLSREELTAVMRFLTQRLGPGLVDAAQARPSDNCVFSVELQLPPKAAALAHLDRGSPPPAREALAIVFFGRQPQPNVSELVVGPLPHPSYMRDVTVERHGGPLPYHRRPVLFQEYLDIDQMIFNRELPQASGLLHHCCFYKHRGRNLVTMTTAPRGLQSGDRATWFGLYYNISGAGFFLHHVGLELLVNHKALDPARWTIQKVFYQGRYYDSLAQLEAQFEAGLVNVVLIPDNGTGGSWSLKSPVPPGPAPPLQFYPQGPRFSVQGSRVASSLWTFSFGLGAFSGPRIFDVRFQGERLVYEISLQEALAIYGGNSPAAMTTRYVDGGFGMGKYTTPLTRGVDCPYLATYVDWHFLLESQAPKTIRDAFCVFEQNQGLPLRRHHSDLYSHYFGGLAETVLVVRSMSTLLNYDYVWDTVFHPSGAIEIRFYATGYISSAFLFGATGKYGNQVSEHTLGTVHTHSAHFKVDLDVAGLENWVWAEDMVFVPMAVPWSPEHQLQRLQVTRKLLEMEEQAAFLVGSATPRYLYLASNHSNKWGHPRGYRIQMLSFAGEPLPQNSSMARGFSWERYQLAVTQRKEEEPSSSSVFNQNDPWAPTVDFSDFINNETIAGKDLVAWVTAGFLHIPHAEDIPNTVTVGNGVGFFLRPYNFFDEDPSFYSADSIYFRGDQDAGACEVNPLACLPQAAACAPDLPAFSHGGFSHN
Assay: In vitro inhibition of VAP-1 SSAO activity (coupled colourimetric method)
Conditions: recombinant human VAP-1 SSAO in CHO cell lysate, 1 mM benzylamine, pH 7.6, 37° C.; read-out: VAP-1 SSAO inhibitory activity IC50
The label class 1 is reserved for IC50 strictly under 0.7 µM; class 0 covers values equal to or above it.

Solved cases below.
Compound	Label class
CCN(N)[C@@H]1Cc2ccccc2[C@H]1O (racemic)	class 0
CN(N)[C@@H]1Cc2ccccc2[C@H]1O [Compound 12]	class 1

API: the following record is the query input.
Task: Report whether reported IC50 is lower than 0.7 µM (strictly) for CN(N)[C@@H]1Cc2ccccc2[C@H]1O [Compound 10, succinate]
Output: class 1

* * *

Provide the recorded IC50 for the entries that follow.
Molecular target: Recombinant human VAP-1 SSAO (Homo sapiens)
Construct: NP40 lysate supernatant used directly
Assay: In vitro inhibition of VAP-1 SSAO activity (coupled colourimetric method)
Details: recombinant human VAP-1 SSAO in CHO cell lysate, 1 mM benzylamine, pH 7.6, 37° C.; read-out: VAP-1 SSAO inhibitory activity IC50
Structures can show the parent of a compound that is named as a salt.
Give bare numbers, in nM.

Answered examples (5):
Compound	Measurement target	IC50 [nM]
CN(N)[C@@H]1Cc2ccccc2[C@H]1O [Compound 14]	Recombinant human VAP-1 SSAO (Homo sapiens)	710
CN(N)[C@H]1Cc2ccccc2[C@@H]1O [Compound 7, fumarate]	Recombinant human VAP-1 SSAO (Homo sapiens)	470
CN(N)[C@@H]1Cc2ccccc2[C@H]1O [Compound 6]	Recombinant human VAP-1 SSAO (Homo sapiens)	650
CN(N)[C@@H]1Cc2ccccc2[C@H]1O (relative stereo) [Compound 4]	Recombinant human VAP-1 SSAO (Homo sapiens)	660
CN(N)[C@H]1Cc2ccccc2[C@@H]1O [Compound 1]	Recombinant human VAP-1 SSAO (Homo sapiens)	700

For the 2 compounds below, give their IC50 values.
1. CO[C@H]1c2ccccc2C[C@@H]1N(C)N
2. CN(N)[C@@H]1Cc2ccccc2[C@H]1O [Compound 8, fumarate]

Output:
1: 4320; 2: 560
